System: SK-OV-3
experiment-description: Growth inhibition of human SKOV3 cells assessed as cell growth at 10 uM incubated for 48 hrs by sulforhodamine B assay relative to control
Type: functional
stated-conditions: SK-OV-3, 48 h, read-out: Activity
Please respond with fulfilled when measured growth at 10 µM is strictly beneath 70%, and with not fulfilled in all other cases.

# smiles-structure, label
data = [
    ("COc1cc(Cl)cc(-c2nn(-c3cccc(NC(=O)Nc4cccc(C(F)(F)F)c4)c3)cc2-c2ccncc2)c1", "fulfilled"),
    ("COc1cc(Cl)cc(-c2nn(-c3cccc(NC(=O)c4cc(C(F)(F)F)cc(C(F)(F)F)c4)c3)cc2-c2ccncc2)c1", "not fulfilled"),
    ("O=C(Nc1cccc(-n2cc(-c3ccncc3)c(-c3cc(O)cc(Cl)c3)n2)c1)Nc1ccc(Cl)c(C(F)(F)F)c1", "fulfilled"),
    ("COc1cc(Cl)cc(-c2nn(-c3cccc(NC(=O)Nc4cc(C(F)(F)F)cc(C(F)(F)F)c4)c3)cc2-c2ccncc2)c1", "fulfilled"),
    ("COc1cc(Cl)cc(-c2nn(-c3cccc(NC(=O)Nc4ccc(Cl)c(C(F)(F)F)c4)c3)cc2-c2ccncc2)c1", "fulfilled"),
]

Source listed as ChEMBL document CHEMBL4308841.
